Data provenance: patent US20230012273A1

Target: T1, Human SIRPαV1 (NP_542970.1), Extracellular Domain + His-Tag (human, UniProt P78324 31-373)
T1 construct: also called huSIRPαV1; hSIRPαV1; not shown: His-Tag
T1 sequence (P78324 other isoform, or with tags, fused parts or gaps): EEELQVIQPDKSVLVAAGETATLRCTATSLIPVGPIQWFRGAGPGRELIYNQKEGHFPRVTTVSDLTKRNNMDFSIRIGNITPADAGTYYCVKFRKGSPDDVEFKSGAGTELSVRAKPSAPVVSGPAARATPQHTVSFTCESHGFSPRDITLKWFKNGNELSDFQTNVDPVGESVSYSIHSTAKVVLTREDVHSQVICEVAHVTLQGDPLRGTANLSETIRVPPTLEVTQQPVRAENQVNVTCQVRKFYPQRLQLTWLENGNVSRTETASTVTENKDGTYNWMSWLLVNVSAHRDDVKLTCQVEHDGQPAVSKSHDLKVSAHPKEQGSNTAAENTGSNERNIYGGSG
Assay: SPR, antibody captured on Protein A/G, ECD-His analyte, 1:1 fit
assay-metric: log10(koff) (log10 of the value in s⁻¹)

{"binder": "Antibody E1 (antibody, human IgG1, kappa, L234A L235A, V domains shown) VH: QVQLQESGPGLVRPSETLSLTCTVSGGSIRNYYWSWIRQPPGKGLEWIGFIYYNGRTFYNPSLKSRVTISLDMSINQFSLKMTSVTAADTAVYYCARVRAYSGIGLDGTDVWGQGTTVTVSS VL: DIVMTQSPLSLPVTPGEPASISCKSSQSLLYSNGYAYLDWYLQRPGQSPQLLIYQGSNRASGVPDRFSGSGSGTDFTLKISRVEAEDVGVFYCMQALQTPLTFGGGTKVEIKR", "log10(koff)": -3.52}
{"binder": "Antibody A2 (antibody, human IgG1, kappa, L234A L235A, V domains shown) VH: EVQLVESGGGLVQPGGSLRLSCAASGFTLSSYDMHWVRQATGKGLEWVSAIGTAGDTYYTGSVKGRFTISRENAKNSLYLQMNSLRAADTAVYYCVRGGVWDDAFDIWGQGTMVTVSS VL: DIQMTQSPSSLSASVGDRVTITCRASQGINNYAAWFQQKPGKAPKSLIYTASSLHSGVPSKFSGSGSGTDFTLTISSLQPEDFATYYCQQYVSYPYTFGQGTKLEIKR", "log10(koff)": -2.16}
{"binder": "Antibody E21 (antibody, human IgG1, kappa, L234A L235A, V domains shown) VH: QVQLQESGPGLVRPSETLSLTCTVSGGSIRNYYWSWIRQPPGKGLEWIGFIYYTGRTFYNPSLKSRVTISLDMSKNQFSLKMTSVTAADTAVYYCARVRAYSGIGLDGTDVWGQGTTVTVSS VL: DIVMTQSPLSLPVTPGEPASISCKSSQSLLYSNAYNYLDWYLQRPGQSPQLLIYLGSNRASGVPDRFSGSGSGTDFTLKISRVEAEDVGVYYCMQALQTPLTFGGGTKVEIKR", "log10(koff)": -2.67}
{"binder": "Antibody A14 (antibody, human IgG1, kappa, L234A L235A, V domains shown) VH: EVQLVESGGGLVQPGGSLRLSCAASGFTLSSYDMHWVRQAPGKGLEWVSAIGTAGDTYYTGSVKGRFTISRENAKNSLYLQMNSLRASDTAVYYCVRGGVWDDAFDIWGQGTMVTVSS VL: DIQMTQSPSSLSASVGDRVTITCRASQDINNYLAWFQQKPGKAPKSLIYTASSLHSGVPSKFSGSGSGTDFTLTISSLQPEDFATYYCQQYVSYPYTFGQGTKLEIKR", "log10(koff)": -2.40}
{"binder": "Antibody E3 (antibody, human IgG1, kappa, L234A L235A, V domains shown) VH: QVQLQESGPGLVRPSETLSLTCTVSGGSIRNYYWSWIRQPPGKGLEWIGFIYYNGRTFYNPSLKSRVTISLDMSKNQFSLKMTSVTAADTAVYYCARVRAYSGIGLDGTDVWGQGTTVTVSS VL: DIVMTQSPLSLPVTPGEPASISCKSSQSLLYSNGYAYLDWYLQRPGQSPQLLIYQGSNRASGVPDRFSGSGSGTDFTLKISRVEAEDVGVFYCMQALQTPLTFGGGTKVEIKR", "log10(koff)": -3.43}
{"binder": "Antibody E18 (antibody, human IgG1, kappa, L234A L235A, V domains shown) VH: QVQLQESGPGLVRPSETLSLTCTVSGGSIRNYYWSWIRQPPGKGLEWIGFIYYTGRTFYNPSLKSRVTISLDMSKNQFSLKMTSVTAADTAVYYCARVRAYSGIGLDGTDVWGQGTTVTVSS VL: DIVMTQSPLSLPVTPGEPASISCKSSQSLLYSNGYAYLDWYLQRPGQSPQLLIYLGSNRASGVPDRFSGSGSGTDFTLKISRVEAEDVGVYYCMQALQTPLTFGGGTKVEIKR", "log10(koff)": -3.00}
